TESTED TARGET: Protein translocase subunit SecA (Escherichia coli (strain K12)) (UniProt P10408)
Sequence (P10408 whole entry): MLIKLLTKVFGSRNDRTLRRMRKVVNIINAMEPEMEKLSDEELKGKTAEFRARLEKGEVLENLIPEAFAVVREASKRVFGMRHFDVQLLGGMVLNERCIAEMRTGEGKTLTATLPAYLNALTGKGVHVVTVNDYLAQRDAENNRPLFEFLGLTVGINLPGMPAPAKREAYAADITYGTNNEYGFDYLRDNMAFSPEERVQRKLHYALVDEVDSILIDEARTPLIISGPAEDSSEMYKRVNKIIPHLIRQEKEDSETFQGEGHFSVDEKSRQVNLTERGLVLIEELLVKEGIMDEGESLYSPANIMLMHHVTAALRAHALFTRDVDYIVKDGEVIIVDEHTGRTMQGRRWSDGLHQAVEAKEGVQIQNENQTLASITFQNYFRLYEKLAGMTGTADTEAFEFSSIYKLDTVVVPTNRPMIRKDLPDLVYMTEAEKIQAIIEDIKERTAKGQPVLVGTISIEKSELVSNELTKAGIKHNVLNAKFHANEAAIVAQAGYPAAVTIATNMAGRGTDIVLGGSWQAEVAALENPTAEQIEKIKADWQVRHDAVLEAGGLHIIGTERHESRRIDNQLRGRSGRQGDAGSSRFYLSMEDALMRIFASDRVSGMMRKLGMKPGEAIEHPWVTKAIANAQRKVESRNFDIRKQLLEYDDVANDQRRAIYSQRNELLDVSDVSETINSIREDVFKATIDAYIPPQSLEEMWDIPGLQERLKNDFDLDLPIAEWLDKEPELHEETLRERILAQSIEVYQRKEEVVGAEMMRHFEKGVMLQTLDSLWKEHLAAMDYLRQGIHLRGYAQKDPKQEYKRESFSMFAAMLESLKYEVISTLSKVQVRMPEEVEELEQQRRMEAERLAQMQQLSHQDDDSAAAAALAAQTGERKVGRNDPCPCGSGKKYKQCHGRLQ
ASSAY DETAILS: Assay to Identify E. coli SecA ATPase Inhibitors
Assay type: functional
Parameters: scale not given: direction of the effect not stated beside the values
PROTOCOL CONDITIONS: 30 µM
Entries with a potency or affinity are not part of this list.

{"MOLECULE": "Cc1ccc(N(C)C2CCN(C(=O)CCc3ccco3)CC2)nn1", "Percent Effect / %": -4.56}
{"MOLECULE": "COCc1cccc(NC(C)C(=O)N(C)Cc2cccc(F)c2)c1 (stereo unspecified)", "Percent Effect / %": -7.47}
{"MOLECULE": "Cn1cc(N2CCC(NC(=O)c3c(F)cccc3F)C2=O)cn1 (stereo unspecified)", "Percent Effect / %": -7.01}
{"MOLECULE": "N#Cc1cccc(C(=O)N2CCc3ncc(Cn4cccn4)n3CC2)c1", "Percent Effect / %": -2.76}
{"MOLECULE": "Cn1cc(-c2nc(CN3CCN(CCO)CC3)cs2)cn1", "Percent Effect / %": 0.128}
{"MOLECULE": "CCOC(=O)C1CCN(Cc2csc(C(C)(C)C)n2)CC1", "Percent Effect / %": 1.04}

* * *

TESTED TARGET: Tyrosyl-tRNA synthetase, putative (Trypanosoma cruzi (strain CL Brener))
ASSAY DETAILS: Trypanosoma cruzi tyrosyl tRNA synthetase (TcYRS) SOP
Assay type: functional
Parameters: scale not given: direction of the effect not stated beside the values
PROTOCOL CONDITIONS: 30 µM
Percent Effect strictly less than 9% = label 1. Otherwise label 0.

{"MOLECULE": "c1coc(CN2CCCC3(COCCN(Cc4c[nH]nn4)C3)C2)c1 (configuration not stated)", "ASSIGNED CLASS": "label 0"}
{"MOLECULE": "CC(C)c1nc(C2CCCN2C(=O)c2ccc(N(C)C)nn2)no1 (configuration not stated)", "ASSIGNED CLASS": "label 0"}
{"MOLECULE": "O=C(COCc1ccccc1)N1CCCC(n2cncn2)C1 (configuration not stated)", "ASSIGNED CLASS": "label 0"}
{"MOLECULE": "CCS(=O)(=O)c1ccccc1N1CCC(NC(=O)c2ccc[nH]2)CC1", "ASSIGNED CLASS": "label 0"}
{"MOLECULE": "CCNC(=O)c1ccoc1CN1c2ccccc2CC1C (configuration not stated)", "ASSIGNED CLASS": "label 0"}
{"MOLECULE": "CN(CC(=O)N1CCCC1c1cnn(C)c1)c1ccc(Cl)cn1 (configuration not stated)", "ASSIGNED CLASS": "label 1"}
{"MOLECULE": "CN(C)C(=O)C1CN(Cc2c[nH]cn2)CCN(C2CCOCC2)C1 (configuration not stated)", "ASSIGNED CLASS": "label 0"}
{"MOLECULE": "CCN1CC2(CCNCC2)COc2ccccc2S1(=O)=O", "ASSIGNED CLASS": "label 1"}
{"MOLECULE": "CC(=O)N1CC(=O)N(c2cnn(C)c2)CC12CCN(Cc1ccsc1)C2 (configuration not stated)", "ASSIGNED CLASS": "label 1"}
{"MOLECULE": "O=C(NCCCn1cncn1)NCC(c1ccccc1)N1CCCC1 (configuration not stated)", "ASSIGNED CLASS": "label 1"}

* * *

Recorded Percent Effect for the following molecules
TESTED TARGET: Tyrosyl-tRNA synthetase, putative (Trypanosoma cruzi (strain CL Brener)) (UniProt Q4DSP6)
Sequence (whole entry): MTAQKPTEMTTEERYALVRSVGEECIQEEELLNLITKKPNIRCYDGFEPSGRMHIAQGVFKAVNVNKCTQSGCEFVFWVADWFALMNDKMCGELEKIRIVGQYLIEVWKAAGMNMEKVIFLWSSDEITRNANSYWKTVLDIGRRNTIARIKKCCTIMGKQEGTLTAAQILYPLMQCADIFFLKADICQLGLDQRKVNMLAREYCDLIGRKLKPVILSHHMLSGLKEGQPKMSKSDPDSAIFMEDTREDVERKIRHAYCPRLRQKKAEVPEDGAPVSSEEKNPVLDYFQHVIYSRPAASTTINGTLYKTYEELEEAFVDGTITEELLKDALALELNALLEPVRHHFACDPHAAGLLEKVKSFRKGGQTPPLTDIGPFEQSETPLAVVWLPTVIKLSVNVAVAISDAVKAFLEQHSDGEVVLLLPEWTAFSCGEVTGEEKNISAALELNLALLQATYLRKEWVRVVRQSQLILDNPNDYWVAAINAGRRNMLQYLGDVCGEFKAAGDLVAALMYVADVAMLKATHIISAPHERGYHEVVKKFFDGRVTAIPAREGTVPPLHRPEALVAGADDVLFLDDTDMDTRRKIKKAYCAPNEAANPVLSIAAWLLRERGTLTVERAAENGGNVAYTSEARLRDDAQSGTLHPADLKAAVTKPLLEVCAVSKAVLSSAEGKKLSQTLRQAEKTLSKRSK
ASSAY DETAILS: Trypanosoma cruzi tyrosyl tRNA synthetase (TcYRS) SOP
Assay type: functional
Design: scale not given: direction of the effect not stated beside the values
PROTOCOL CONDITIONS: 30 µM
READOUT TYPE: Percent Effect (%)

{"MOLECULE": "Cc1cc(C)c(CNC(=O)N2CCCC2c2cccn2C)c(=O)[nH]1 (stereo unspecified)", "UNITS TEXT": "%", "NUMERIC VALUE": 27.9}
{"MOLECULE": "Cc1cccc(N2CC[C@@H]3CN(C(=O)c4ccco4)CCO[C@@H]3C2)n1", "UNITS TEXT": "%", "NUMERIC VALUE": 14.1}
{"MOLECULE": "COc1c(CNCCNC(=O)Cc2ccc(F)cc2)c(C)nn1C", "UNITS TEXT": "%", "NUMERIC VALUE": -18.3}
{"MOLECULE": "CCN(CC)Cc1cn2c(n1)CN(C(=O)c1cnccn1)CC2", "UNITS TEXT": "%", "NUMERIC VALUE": 7.69}
{"MOLECULE": "CN(CC1(O)CCCN(CCC2CCCCC2)C1=O)C1CCOCC1 (stereo unspecified)", "UNITS TEXT": "%", "NUMERIC VALUE": 13.6}
{"MOLECULE": "COc1ccccc1C(O)CNC(=O)Nc1ncccc1C (stereo unspecified)", "UNITS TEXT": "%", "NUMERIC VALUE": 16.5}
{"MOLECULE": "CN(CC1CC1)c1ccc2ccc(C(=O)NCCN3CCOCC3)cn12", "UNITS TEXT": "%", "NUMERIC VALUE": 15}
{"MOLECULE": "O=C(CC1CCCC1)N1CCCC(c2n[nH]c3nccnc23)C1 (stereo unspecified)", "UNITS TEXT": "%", "NUMERIC VALUE": 16.9}
{"MOLECULE": "CC(NC(=O)NCc1cccnc1N1CCCCC1)c1nccs1 (stereo unspecified)", "UNITS TEXT": "%", "NUMERIC VALUE": 14.6}
{"MOLECULE": "CCCC(=O)NCc1cc(Br)c(OC)c(OC)c1", "UNITS TEXT": "%", "NUMERIC VALUE": 13.6}
{"MOLECULE": "Cn1cc(S(=O)(=O)N2CCCC2CC(=O)c2cccs2)cn1 (stereo unspecified)", "UNITS TEXT": "%", "NUMERIC VALUE": 4.88}
{"MOLECULE": "Cc1nc(C)n(CC2CCCN(Cc3nnc(-c4ccco4)o3)C2)n1 (stereo unspecified)", "UNITS TEXT": "%", "NUMERIC VALUE": 5.2}
{"MOLECULE": "COc1cc(CNC(=O)NCc2c(C)cc(C)[nH]c2=O)ccc1C", "UNITS TEXT": "%", "NUMERIC VALUE": 12.2}
{"MOLECULE": "CS(=O)(=O)N1CCC(Oc2ccc(C(=O)N3CCSCC3)cc2Cl)CC1", "UNITS TEXT": "%", "NUMERIC VALUE": 7.69}
{"MOLECULE": "CCOc1ncccc1CNC(=O)N1CCCC1c1cc(C)no1 (stereo unspecified)", "UNITS TEXT": "%", "NUMERIC VALUE": 16.1}
{"MOLECULE": "Cn1ccnc1CN1CCN(c2ccc(C#N)cn2)CC1", "UNITS TEXT": "%", "NUMERIC VALUE": 15.8}
{"MOLECULE": "CN(C)C(=O)N1CCN(C(=O)CCc2ccccc2)[C@H]2CS(=O)(=O)C[C@H]21", "UNITS TEXT": "%", "NUMERIC VALUE": 9.76}
{"MOLECULE": "O=C(Cc1ccsc1)NCC1OCCc2cn(CC3CC3)nc21 (stereo unspecified)", "UNITS TEXT": "%", "NUMERIC VALUE": 8.97}
{"MOLECULE": "CC1CCCCN1CCNC(=O)c1ccn(-c2ccc(F)cc2)n1 (stereo unspecified)", "UNITS TEXT": "%", "NUMERIC VALUE": 23.5}
{"MOLECULE": "Cc1nn(C)cc1CNC(=O)c1cn(CCC2CCCCN2)nn1 (stereo unspecified)", "UNITS TEXT": "%", "NUMERIC VALUE": 16.1}
{"MOLECULE": "COCc1nc2cc(NCc3ccc(C)o3)ccc2o1", "UNITS TEXT": "%", "NUMERIC VALUE": 15.8}
{"MOLECULE": "CCNC(=O)c1nc2c(s1)CCCN2S(C)(=O)=O", "UNITS TEXT": "%", "NUMERIC VALUE": 15}
{"MOLECULE": "O=S1(=O)C[C@@H]2[C@H](C1)N(Cc1cc(Cl)cc(Cl)c1)CCN2CC1CC1", "UNITS TEXT": "%", "NUMERIC VALUE": 11.1}
{"MOLECULE": "Cc1cc(C)cc(OCCC(=O)N2CCCC(n3cncn3)C2)c1 (stereo unspecified)", "UNITS TEXT": "%", "NUMERIC VALUE": 3.66}
{"MOLECULE": "O=C(c1ccc(F)c(Cl)c1)N1C[C@@H]2CC[C@H](C1)N(Cc1ccccc1)C2", "UNITS TEXT": "%", "NUMERIC VALUE": 25.9}
{"MOLECULE": "CC(C)COC(C)C(=O)NCc1ccc(OC(C)C)nc1 (stereo unspecified)", "UNITS TEXT": "%", "NUMERIC VALUE": 25.9}
{"MOLECULE": "CC(C)(C)C(=O)NCCn1ccc(-c2ccncc2)n1", "UNITS TEXT": "%", "NUMERIC VALUE": 2.5}
{"MOLECULE": "COc1ccc(CN2C[C@@H](OCc3ccccn3)[C@H]3COC[C@H]32)cc1", "UNITS TEXT": "%", "NUMERIC VALUE": 12.8}
{"MOLECULE": "Cc1nc(C)n(CC2CCCN(Cc3nc(C)c(C)o3)C2)n1 (stereo unspecified)", "UNITS TEXT": "%", "NUMERIC VALUE": 23.5}
{"MOLECULE": "O=C(NCc1ccccn1)N(Cc1ccc(F)cc1F)C1CC1", "UNITS TEXT": "%", "NUMERIC VALUE": 13.9}
{"MOLECULE": "CN(C)C(=O)[C@H]1C[C@@H]2CN(S(=O)(=O)Cc3ccccc3)C[C@H]1O2", "UNITS TEXT": "%", "NUMERIC VALUE": 11.5}
{"MOLECULE": "Fc1cccc(N2C[C@H]3CCN(c4cccnc4)C[C@H]3C2)c1", "UNITS TEXT": "%", "NUMERIC VALUE": 25.6}
{"MOLECULE": "CN(C)C(=O)CN1C[C@@H]2CC[C@H](C1)N(C(=O)CCn1cncn1)C2", "UNITS TEXT": "%", "NUMERIC VALUE": 9.76}
{"MOLECULE": "CN1CCCc2cc(NC(=O)N3CCOC(C(N)=O)C3)ccc21 (stereo unspecified)", "UNITS TEXT": "%", "NUMERIC VALUE": 21}
{"MOLECULE": "COCCN1CCCC(c2nc3c([nH]2)CC(C)(C)CNC3=O)C1 (stereo unspecified)", "UNITS TEXT": "%", "NUMERIC VALUE": 9.76}
{"MOLECULE": "O=C(c1cccs1)N1CCC(O)(CN2CCc3ccccc3C2)C1 (stereo unspecified)", "UNITS TEXT": "%", "NUMERIC VALUE": 3.9}
{"MOLECULE": "c1ccc(CCN2CCN(c3ccc4nncn4n3)CC2)nc1", "UNITS TEXT": "%", "NUMERIC VALUE": 7.32}
{"MOLECULE": "CN(C)CC(=O)N1CCCC2(CCC(=O)N(CCc3c[nH]cn3)C2)C1 (stereo unspecified)", "UNITS TEXT": "%", "NUMERIC VALUE": 16.1}
{"MOLECULE": "O=C(c1ccc[nH]1)N1CCN(CC2CCOc3ccccc3C2)CC1 (stereo unspecified)", "UNITS TEXT": "%", "NUMERIC VALUE": -7.69}
{"MOLECULE": "Cc1cc(C)n(CC2CCCN2C(=O)c2ccc3c(c2)OCO3)n1 (stereo unspecified)", "UNITS TEXT": "%", "NUMERIC VALUE": 2.53}
{"MOLECULE": "Cc1noc([C@H]2COC[C@H]3CN(C(=O)Cc4ccc(F)cc4)C[C@H]32)n1", "UNITS TEXT": "%", "NUMERIC VALUE": 11}
{"MOLECULE": "CCOc1ccc(NC(=O)CN2CCN(c3nccn3C)CC2)cc1", "UNITS TEXT": "%", "NUMERIC VALUE": 14.1}
{"MOLECULE": "COc1c(CNCC(O)c2cccc(F)c2)c(C(C)C)nn1C (stereo unspecified)", "UNITS TEXT": "%", "NUMERIC VALUE": 14.1}
{"MOLECULE": "CN(c1cccnn1)C1CCN(C(=O)c2ccc3c(c2)COC3)CC1", "UNITS TEXT": "%", "NUMERIC VALUE": 12.2}
{"MOLECULE": "Cc1ncc(CNC2CCCN(Cc3noc(C4CC4)n3)C2)s1 (stereo unspecified)", "UNITS TEXT": "%", "NUMERIC VALUE": 19.5}
{"MOLECULE": "Cc1cc(C)n(C2CCCN(C(=O)CCNS(C)(=O)=O)C2)n1 (stereo unspecified)", "UNITS TEXT": "%", "NUMERIC VALUE": 7.59}
